Cited source for all entries: paper PMC5540273

- System: DMPK
- Experimental Setup: concentration: 1 μM, replicates: in singlicate; n = 1;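 note: KINOMEscan kinase panel screen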
Would you mind telling me the reported %Inh of each entry?
Returns: string containing the number followed by the unit.

Give %Inh for each listed item.
1. Nc1cccc(-c2ccc3c(N)n[nH]c3c2)c1
2. CCOc1nccc(-c2c(-c3ccc(F)cc3)ncn2C2CCNCC2)n1

1: 33%; 2: 15%

Please report %Inh for every entry that follows.
1. Nc1ncc(-c2ccc3nccc(-c4ccncc4)c3c2)cc1S(=O)(=O)N1CCCCC1
2. COc1ccc(NC(=O)c2ccoc2)cc1-c1ccc(C(=O)NCC2CC2)cc1
3. COC(=O)Nc1nc2cc(Oc3ccc(NC(=O)Nc4cccc(SC)c4)cc3)ccc2[nH]1.Cl
4. CN(c1ccc2c(c1)nc(NCc1ccccc1)n2C)c1ccnc(Nc2ccc(CS(C)(=O)=O)cc2)n1.Cl
5. Cc1nn2c(=O)cc(N3CCO[C@H](C)C3)nc2n1Cc1cccc(Cl)c1Cl
6. Cl.N#CCc1ccc(Nc2nccc(Nc3ccc(Oc4ccccc4)cc3)n2)cc1
7. CN(c1ccc(F)c(NC(=O)c2cccc(OC(C)(C)C#N)c2Cl)c1)c1ccc2nc(NC(=O)C3CC3)sc2n1

["0%", "1%", "0%", "9%", "1%", "0%", "0%"]

Working through the 3 compounds below one at a time, give %Inh for each.
1. COC(=O)Nc1nc2ccc(Oc3ccc(CC(=O)Nc4cc(C(F)(F)F)ccc4F)cc3)cc2[nH]1
2. CCNc1nccc(-c2c(-c3ccc(F)cc3)ncn2C2CCN(C)CC2)n1
3. Fc1cc(Cl)ccc1Nc1ccnc2cc(-c3ccc(CN4CCOCC4)o3)ccc12

1: 0%; 2: 0%; 3: 16%

----------
- System: ASK1
- Construct: gene MAP3K5
- Experimental Setup: concentration: 1 μM, replicates: in singlicate; n = 1
Measured Quantity: %Inh (%)
Numbers only, in %.

>>> quantitative_readout("c1ccc(Oc2ccc(Nc3ccnc4cc(-c5ccc(CN6CCCCC6)o5)ccc34)cc2)nc1")
0
>>> quantitative_readout("CN(C)CCOc1ccc(-c2cc(-c3ccc(Cl)c(O)c3)c(-c3ccncc3)[nH]2)cc1.Cl.Cl")
15
>>> quantitative_readout("CC(C)c1nc(-c2ccc(F)c(NS(=O)(=O)c3c(F)cccc3F)c2)c(-c2ccnc(Nc3ccc(N4CCOCC4)nc3)n2)s1")
0

Answer for every listed entry: what is its %Inh? The entries follow.
1. Cc1ccc(C)c(NC(=O)Nc2ccc(C)c(-c3ccc(C(=O)Nc4ccncc4)cc3)c2)c1
2. CN1CCN(Cc2ccc(NC(=O)Nc3ccc(N(C)c4ccnc(Nc5ccc(CS(C)(=O)=O)cc5)n4)cc3)cc2)CC1.Cl
3. Cc1ccc(NC(=O)c2cccc(N3CCCCC3)c2)cc1-c1ccc(C(=O)NCC2CC2)cc1
4. O=C(O)C(F)(F)F.O=c1[nH]ccc2nc(N[C@@H]3CCNC3)nc(Nc3cc(Cl)cc(Cl)c3)c12

0
0
12
0

----------
- Tested on: RIPK1
- Experimental Setup: concentration: 1 μM, replicates: in singlicate; n = 1
Exercise: state measured %Inh for each of the compounds provided.
Numbers only, in %.

>>> quantitative_readout("CCOc1nccc(-c2c(-c3ccc(F)cc3)ncn2C2CCNCC2)n1 [SB-249175]")
23

Need %Inh for each of these compounds.
1. COc1cc(Nc2nccc(N3CCC(NC(=O)Nc4ccc5c(c4)OCO5)C3)n2)cc(OC)c1OC (stereo not shown) [GSK1379766]
2. O=C(Nc1n[nH]c2cc(-c3cccs3)ccc12)C1CC1 [SB-731284]
3. N#Cc1cnc2cc(-c3cnc(CNCCN4CCOCC4)s3)ccc2c1Nc1ccc(Oc2ccccc2)cc1 [GW664114]
4. COc1cc(Nc2ccnc3cc(-c4ccncc4)ccc23)cc(OC)c1OC.Cl [GW494610]
5. CCNC(=O)/C=C/c1n[nH]c2cc(Sc3ccccc3C(=O)NC)ccc12
6. Cc1nn2c(=O)cc(N3CCO[C@H](C)C3)nc2n1Cc1cccc(Cl)c1Cl [GSK2373693]
7. COc1cccc(NC(=O)NCCNc2ccnc(Nc3ccc(F)cc3)n2)c1 [GSK1379879]
8. COC(=O)Nc1nc2cc(Oc3ccc(NC(=O)Nc4cccc(SC)c4)cc3)ccc2[nH]1.Cl [GW697999]

0
59
0
0
0
2
13
4
